# SUBJECT OF TEST: Full-length glucokinase (beta cell isoform) (Homo sapiens, UniProt P35557)
# Construct: Full-length glucokinase (beta cell isoform) was His-tagged at N-terminus; His tag (N); made in house
# Sequence (P35557 whole entry, species assumed, canonical isoform): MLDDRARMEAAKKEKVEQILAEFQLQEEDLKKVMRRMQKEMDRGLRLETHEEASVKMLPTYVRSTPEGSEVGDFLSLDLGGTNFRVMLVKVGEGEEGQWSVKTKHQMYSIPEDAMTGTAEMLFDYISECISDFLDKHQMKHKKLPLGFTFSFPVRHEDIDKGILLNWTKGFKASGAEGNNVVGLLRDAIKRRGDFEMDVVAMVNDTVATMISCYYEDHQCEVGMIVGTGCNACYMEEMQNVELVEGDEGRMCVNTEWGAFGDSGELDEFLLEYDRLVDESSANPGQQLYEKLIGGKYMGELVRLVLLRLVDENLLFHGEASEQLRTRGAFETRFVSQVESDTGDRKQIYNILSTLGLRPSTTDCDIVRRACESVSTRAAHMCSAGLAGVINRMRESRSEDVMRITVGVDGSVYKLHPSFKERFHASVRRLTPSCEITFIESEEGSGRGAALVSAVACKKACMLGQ
# EXPERIMENTAL PROTOCOL: Glucokinase biochemical assay (PK/LDH-coupled, NADH depletion at 340 nm): % activation, EC50, % max activation
# COND: 5 mM glucose; GK activation; read-out: EC50
# Protocol: Full-length glucokinase (beta cell isoform) was His-tagged at N-terminus and purified by a Ni column followed by size exclusion chromatography. Glucose was obtained from Calbiochem, and other reagents were from Sigma. […] Glucokinase was added to the buffer mixture to initiate the reaction in the presence and absence of compound. Reaction was monitored by absorbance at 340nm due to the depletion of NADH. The initial reaction velocity was measured by the slope of a linear time course of 200-900 sec. […]
ENDPOINT: EC50 (nM)
Write the number in nM without appending the unit.

Here are 2 compounds together with their reported answers.
>>> print(df.to_string())
                                   compound  endpoint   u  value_measured
0  Cn1ccc(NC(=O)c2cc(Oc3cc(F)c(C(=O)N4CCC4)c(F)c3)c3c(c2)OC(C)(C)C3)n1      EC50  nM              72
1  Cc1cc2c(Oc3ccc(S(C)(=O)=O)cc3)cc(C(=O)Nc3ccc(Cl)cn3)cc2o1      EC50  nM            2900

Briefly, EC50 measured for `CN(C)C(=O)c1ccc(Oc2cc(C(=O)Nc3cnn(C)n3)cc3c2CC(C)(C)O3)cc1F` : 52.8

Sample `CN(C)C(=O)c1ccc(Oc2cc(C(=O)Nc3ccn(C)n3)cc3occc23)cc1F` ; EC50 observed: 1700

// recorded EC50 for `Cc1ccc(NC(=O)c2cc(OC(C)C)cc3occc23)nc1` : 1400

Reported EC50 for `Cn1ccc(NC(=O)c2cc(OCc3nc(-c4ccccn4)no3)c3c(c2)OC(C)(C)C3)n1` was 1600

Just so you know, measured EC50 for `COc1ccnc(NC(=O)c2cc(Oc3ccc(S(C)(=O)=O)cc3)c3cc(C(=O)N(C)C)oc3c2)c1` came out at 7800

EC50 for COCC1(C)Cc2c(Oc3ccc(C(=O)N(C)C)c(F)c3)cc(C(=O)Nc3ccn(C)n3)cc2O1 (stereo not shown) is 75

Notebook: `Cc1ccc(NC(=O)c2cc(Oc3ccc(S(C)(=O)=O)cc3)cc3occc23)nc1` , EC50 read as 3700

Form field EC50, entry `Cn1ccc(NC(=O)c2cc(Oc3ccc(C(=O)NC4CCC4)c(F)c3)c3c(c2)OC(C)(C)C3)n1` : 540
